- subjectOfTest: CCR9 (Homo sapiens, UniProt P51686)
- Sequence (P51686 whole entry): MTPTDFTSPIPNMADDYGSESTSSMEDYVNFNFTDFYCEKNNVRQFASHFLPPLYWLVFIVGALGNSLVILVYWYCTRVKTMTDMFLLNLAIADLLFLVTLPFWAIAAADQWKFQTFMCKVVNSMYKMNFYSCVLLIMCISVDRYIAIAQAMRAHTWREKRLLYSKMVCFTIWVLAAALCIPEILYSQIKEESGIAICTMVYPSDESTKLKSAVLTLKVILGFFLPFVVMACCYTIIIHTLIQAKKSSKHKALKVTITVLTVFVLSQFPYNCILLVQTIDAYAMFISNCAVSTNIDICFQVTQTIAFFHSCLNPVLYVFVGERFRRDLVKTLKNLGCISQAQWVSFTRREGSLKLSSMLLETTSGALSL
- test: FLIPR calcium flux assay using MOLT4 cells (TECK stimulation)
- Type: cell-based
- Parameters: endogenous in cells; host or cells: MOLT4 (human T-cell line)
- studyConditions: MOLT4 cells (a human T-cell line); Ki determined from IC50 of TECK-induced intracellular calcium increase
Answer each item with its documented log10 of Ki.
Would you kindly interpret these values as log10 of Ki expressed in nM?

GET /value?item= O=S(=O)(Nc1ccnc2cc(C3CC3)nn12)c1ccc(C(F)(F)F)cc1 [Compound 41] &field=log10 of Ki returns 3.27

GET /value?item= CC(C)(C)c1ccc(S(=O)(=O)Nc2ccc(C#N)c3cc(-c4cn[nH]c4)nn23)cc1 [Compound 164] &field=log10 of Ki returns 1.53

GET /value?item= COc1cncc(-c2cc3c(C#N)ccc(NS(=O)(=O)c4ccc(C(C)(C)C)cc4)n3n2)c1 [Compound 161] &field=log10 of Ki returns 1.79

GET /value?item= O=S(=O)(Nc1ccc(Cl)c2cc(-c3cccnc3)nn12)c1ccc(C(F)(F)F)cc1 [Compound 113] &field=log10 of Ki returns 2.27

GET /value?item= O=S(=O)(Nc1ccnc2cc(C3CC3)nn12)c1ccc(OC(F)F)cc1 [Compound 51] &field=log10 of Ki returns 3.51

GET /value?item= CC(C)(C)c1ccc(S(=O)(=O)Nc2ccnc3cc(-c4cccnc4)nn23)cc1 [Compound 62] &field=log10 of Ki returns 2.40

GET /value?item= Cc1cc2c(C#N)ccc(NS(=O)(=O)c3ccc(C(C)(C)C)cc3)n2n1 [Compound 95] &field=log10 of Ki returns 0.30

GET /value?item= CC(C)c1cc2c(Cl)ccc(NS(=O)(=O)c3ccc(C(F)(F)F)cc3)n2n1 [Compound 101] &field=log10 of Ki returns 2.69

GET /value?item= CC(C)(C)c1ccc(S(=O)(=O)Nc2ccnc3cc(-c4ccc(C#N)cc4)nn23)cc1 [Compound 75] &field=log10 of Ki returns 3.19

GET /value?item= CCc1cc2nccc(NS(=O)(=O)c3ccc(Cl)c(C(F)(F)F)c3)n2n1 [Compound 87] &field=log10 of Ki returns 3.51

GET /value?item= Cc1ccncc1-c1cc2c(Cl)ccc(NS(=O)(=O)c3ccc(C(C)(C)C)cc3)n2n1 [Compound 208] &field=log10 of Ki returns 1.94

GET /value?item= CC(C)(C)c1ccc(S(=O)(=O)Nc2ccc(Cl)c3cc(C4CC4)nn23)cc1 [Compound 105] &field=log10 of Ki returns 2.45

GET /value?item= O=S(=O)(Nc1ccnc2cc(C3CC3)nn12)c1cccc(OC(F)(F)F)c1 [Compound 50] &field=log10 of Ki returns 3.57

GET /value?item= CC(C)(C)c1ccc(S(=O)(=O)Nc2ccc(Cl)c3cc(-c4cncc(F)c4)nn23)cc1 [Compound 132] &field=log10 of Ki returns 2.23

GET /value?item= CCOc1ccc(-c2cc3c(C#N)ccc(NS(=O)(=O)c4ccc(C(C)(C)C)cc4)n3n2)cn1 [Compound 195] &field=log10 of Ki returns 1.53

GET /value?item= Cc1cc(-c2cc3c(C#N)ccc(NS(=O)(=O)c4ccc(C(C)(C)C)cc4)n3n2)n(C)n1 [Compound 158] &field=log10 of Ki returns 1.68

GET /value?item= COc1cncc(-c2cc3c(Br)ccc(NS(=O)(=O)c4ccc(C(C)(C)C)cc4)n3n2)c1 [Compound 160] &field=log10 of Ki returns 2.23

GET /value?item= CCOc1ccc(-c2cc3c(Cl)ccc(NS(=O)(=O)c4ccc(C(C)(C)C)cc4)n3n2)cn1 [Compound 194] &field=log10 of Ki returns 2.04

GET /value?item= O=S(=O)(Nc1ccc(Cl)c2cc(C3CC3)nn12)c1ccc(Cl)c(C(F)(F)F)c1 [Compound 108] &field=log10 of Ki returns 2.66

GET /value?item= CC(C)(C)c1ccc(S(=O)(=O)Nc2c(C#N)ccc3cc(-c4cccnc4)nn23)cc1 [Compound 180] &field=log10 of Ki returns 1.48

GET /value?item= O=S(=O)(Nc1ccc(Cl)c2cc(-c3cccnc3)nn12)c1ccc(F)cc1 [Compound 115] &field=log10 of Ki returns 2.81

GET /value?item= Cc1cncc(-c2cc3c(C#N)ccc(NS(=O)(=O)c4ccc(C(C)(C)C)cc4)n3n2)c1 [Compound 200] &field=log10 of Ki returns 1.30

GET /value?item= COc1ncccc1-c1cc2c(Cl)ccc(NS(=O)(=O)c3ccc(C(C)(C)C)cc3)n2n1 [Compound 201] &field=log10 of Ki returns 2.28

GET /value?item= Cn1nnc(-c2cc3c(Cl)ccc(NS(=O)(=O)c4ccc(C(C)(C)C)cc4)n3n2)n1 [Compound 192] &field=log10 of Ki returns 2.21

GET /value?item= COc1ncccc1-c1cc2c(C#N)ccc(NS(=O)(=O)c3ccc(C(C)(C)C)cc3)n2n1 [Compound 202] &field=log10 of Ki returns 2.03

GET /value?item= CC(C)n1cc(-c2cc3c(C#N)ccc(NS(=O)(=O)c4ccc(C(C)(C)C)cc4)n3n2)cn1 [Compound 191] &field=log10 of Ki returns 1.28
